tested on: HepG2; experiment: Cytotoxicity against human HepG2 cells assessed as growth inhibition at 10 uM measured after 48 hrs by MTT assay relative to control; format: functional; settings: HepG2, 48 h, read-out: GI
Mark class 1 for reported inhibition of growth at 10 µM of 30% or greater; mark class 0 for anything smaller.

Some solved entries appear below for comparison.
{"Smiles record": "O=C(/C=C/c1ccc(OCc2cn(Cc3ccccc3Br)nn2)cc1)c1ccc([N+](=O)[O-])cc1", "Qualitative label": "class 1"}
{"Smiles record": "COc1ccc(C(=O)/C=C/c2ccc(OCc3cn(Cc4ccccc4Br)nn3)cc2)cc1", "Qualitative label": "class 1"}
{"Smiles record": "COc1ccc(C(=O)/C=C/c2ccc(OCc3cn(Cc4cccc(Br)c4)nn3)cc2)cc1", "Qualitative label": "class 0"}
{"Smiles record": "COc1ccc(C(=O)/C=C/c2ccc(OCc3cn(Cc4cccc(F)c4)nn3)cc2)cc1", "Qualitative label": "class 0"}
{"Smiles record": "COc1ccc(C(=O)/C=C/c2ccc(OCc3cn(Cc4ccc(Br)cc4)nn3)cc2)cc1", "Qualitative label": "class 1"}

Dear colleague, could you confirm whether O=C(/C=C/c1ccc(OCc2cn(Cc3ccc(F)cc3)nn2)cc1)c1ccc([N+](=O)[O-])cc1 has inhibition of growth at 10 µM at or above 30%? class 0

Lookup C#CCOc1ccc(/C=C/C(=O)c2ccc([N+](=O)[O-])cc2)cc1 class 0

###

// reported inhibition of growth at 10 µM for each item listed
tested on: HepG2; test: Cytotoxicity against human HepG2 cells assessed as growth inhibition at 10 uM measured after 48 hrs by MTT assay relative to control; format: functional; settings: HepG2, 48 h, read-out: GI
Please reply with the bare figure in % and do not write the unit itself.

Please review the entries below; each comes with its answer.
{"Smiles record": "O=C(/C=C/c1ccc(OCc2cn(Cc3cccc(F)c3)nn2)cc1)c1ccc(Br)cc1", "U": "%", "inhibition of growth at 10 µM": 34}
{"Smiles record": "O=C(/C=C/c1ccc(OCc2cn(Cc3ccccc3Br)nn2)cc1)c1ccc(Br)cc1", "U": "%", "inhibition of growth at 10 µM": 34}
{"Smiles record": "O=C(/C=C/c1ccc(OCc2cn(Cc3cccc(Br)c3)nn2)cc1)c1ccc(Br)cc1", "U": "%", "inhibition of growth at 10 µM": 25}
{"Smiles record": "COc1ccc(C(=O)/C=C/c2ccc(OCc3cn(Cc4ccccc4F)nn3)cc2)cc1", "U": "%", "inhibition of growth at 10 µM": 33}

Now, please, on to the next compound.
Endpoint output: inhibition of growth at 10 µM of O=C(/C=C/c1ccc(OCc2cn(Cc3ccccc3)nn2)cc1)c1ccc(Br)cc1 . Value? 22

###

test system: HepG2; assay: Cytotoxicity against human HepG2 cells assessed as growth inhibition at 10 uM measured after 48 hrs by MTT assay relative to control; type: functional; details: HepG2, 48 h, read-out: GI
# inhibition of growth at 10 µM listing for each entry below
Numeric only. Scale: %

Example cases with answers are listed next.
{"Molecule": "O=C(/C=C/c1ccc(OCc2cn(Cc3ccc(F)cc3)nn2)cc1)c1ccc(Br)cc1", "Property": "inhibition of growth at 10 µM", "Recorded result": 22}
{"Molecule": "C#CCOc1ccc(/C=C/C(=O)c2ccc(Br)cc2)cc1", "Property": "inhibition of growth at 10 µM", "Recorded result": 22}
{"Molecule": "O=C(/C=C/c1ccc(OCc2cn(Cc3ccc(Br)cc3)nn2)cc1)c1ccc(Br)cc1", "Property": "inhibition of growth at 10 µM", "Recorded result": 22}
{"Molecule": "O=C(/C=C/c1ccc(OCc2cn(Cc3ccccc3F)nn2)cc1)c1ccc(Br)cc1", "Property": "inhibition of growth at 10 µM", "Recorded result": 29}
{"Molecule": "O=C(/C=C/c1ccc(OCc2cn(Cc3cccc(Br)c3)nn2)cc1)c1ccc([N+](=O)[O-])cc1", "Property": "inhibition of growth at 10 µM", "Recorded result": 13}

Which inhibition of growth at 10 µM is reported for this molecule? COc1ccc(C(=O)/C=C/c2ccc(OCc3cn(Cc4ccccc4)nn3)cc2)cc1 51

Cool, now Oc1cccc(-c2nc(N3CCOCC3)c3oc4ncccc4c3n2)c1 [PI-103] 65

Note, next up: O=C(/C=C/c1ccc(OCc2cn(Cc3ccc(Br)cc3)nn2)cc1)c1ccc([N+](=O)[O-])cc1 21

###

# inhibition of growth at 10 µM listing for each entry below
test system: HepG2; experiment: Cytotoxicity against human HepG2 cells assessed as growth inhibition at 10 uM measured after 48 hrs by MTT assay relative to control; format: functional; details: HepG2, 48 h, read-out: GI
# output: bare number, implied unit %

Below are worked cases with known answers.
{"Smiles record": "O=C(/C=C/c1ccc(OCc2cn(Cc3ccccc3F)nn2)cc1)c1ccc([N+](=O)[O-])cc1", "Property": "inhibition of growth at 10 µM", "Recorded result": 22}
{"Smiles record": "COc1ccc(C(=O)/C=C/c2ccc(OCc3cn(Cc4ccc(F)cc4)nn3)cc2)cc1", "Property": "inhibition of growth at 10 µM", "Recorded result": 21}

Write down the reported inhibition of growth at 10 µM of C#CCOc1ccc(/C=C/C(=O)c2ccc(OC)cc2)cc1 , test system: HepG2. 25

O=C(/C=C/c1ccc(OCc2cn(Cc3cccc(F)c3)nn2)cc1)c1ccc([N+](=O)[O-])cc1 , same question. 43
